Target or system UniProtKB P18266: recorded pIC50 listed per item.
Sequence (P18266 whole entry): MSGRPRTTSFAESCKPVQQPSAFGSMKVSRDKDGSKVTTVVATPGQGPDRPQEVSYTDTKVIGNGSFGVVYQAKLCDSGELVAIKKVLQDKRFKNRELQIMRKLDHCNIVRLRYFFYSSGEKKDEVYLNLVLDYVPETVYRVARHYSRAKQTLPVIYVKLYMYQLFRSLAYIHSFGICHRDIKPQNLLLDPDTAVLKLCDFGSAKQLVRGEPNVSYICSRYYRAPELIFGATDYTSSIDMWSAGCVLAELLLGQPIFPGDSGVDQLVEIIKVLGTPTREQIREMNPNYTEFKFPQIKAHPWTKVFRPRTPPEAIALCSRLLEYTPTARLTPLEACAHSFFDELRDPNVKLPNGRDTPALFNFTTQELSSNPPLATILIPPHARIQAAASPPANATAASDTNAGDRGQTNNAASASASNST
FYI, pIC50 means -log10 of a concentration in mol per litre.

- Molecule: "Cn1cc(C2=C(c3cn(CCCSC(=N)N)c4ccccc34)C(=O)NC2=O)c2ccccc21 [BISINDOLYLMALEIMIDE IX]"
  Recorded Measurement: 8.17

Moving on to the next molecule.
Given `CN(C)CCCn1cc(C2=C(c3c[nH]c4ccccc34)C(=O)NC2=O)c2ccccc21` , state its recorded pIC50.
6.44

###

Quick reference for Activity among some compounds
- System Tested: Dual specificity tyrosine-phosphorylation-regulated kinase 1A (Rattus norvegicus)
- Measurement Protocol: Inhibition of recombinant rat DYRK1A kinase domain expressed in bacteria assessed as residual activity at 10 uM using KKISGRLSPIMTEQ as substrate in presence of [gamma-33P]ATP
# unit: % | format: bare number

Would you please look over these solved cases?
- Molecular String: "CCn1cc(C2=C(c3cn(C(C)C)c4ccccc34)C(=O)N(O)C2=O)c2ccccc21"
  Recorded Measurement: 75
- Molecular String: "Cn1cc(C2=C(c3cn(CCCCCC#N)c4ccccc34)C(=O)N(O)C2=O)c2ccccc21"
  Recorded Measurement: 24
- Molecular String: "Cn1cc(C2=C(c3cn(C)c4ncccc34)C(=O)NC2=O)c2ccccc21"
  Recorded Measurement: 30
- Molecular String: "Cn1cc(C2=C(c3cn(C)c4ccccc34)C(=O)N(O)C2=O)c2ccccc21"
  Recorded Measurement: 81
- Molecular String: "CCn1cc(C2=C(c3cn(C)c4ccccc34)C(=O)N(O)C2=O)c2ccccc21"
  Recorded Measurement: 81

Give Activity (Dual specificity tyrosine-phosphorylation-regulated kinase 1A (Rattus norvegicus)) of the following compound: `CC(C)n1cc(C2=C(c3c[nH]c4ccccc34)C(=O)N(O)C2=O)c2ccccc21`
73

Give Activity (Dual specificity tyrosine-phosphorylation-regulated kinase 1A (Rattus norvegicus)) of the following compound: `O=C1C2=C(C(=O)N1O)c1cn(c3ccccc13)CCCCCCn1cc2c2ccccc21`
107

Give Activity (Dual specificity tyrosine-phosphorylation-regulated kinase 1A (Rattus norvegicus)) of the following compound: `CC(C)n1cc(C2=C(c3cn(C)c4ccccc34)C(=O)N(O)C2=O)c2ccccc21`
54

Give Activity (Dual specificity tyrosine-phosphorylation-regulated kinase 1A (Rattus norvegicus)) of the following compound: `O=C(O)CCCCCn1cc(C2=C(c3c[nH]c4ccccc34)C(=O)N(O)C2=O)c2ccccc21`
24

FYI, the data here is from ChEMBL document CHEMBL4229455.
